Target: T1, human interleukin-23 receptor (IL23R) (human, UniProt Q5VWK5 24-355, limits assumed)
T1 construct: also called human IL23R
T1 sequence (looked up): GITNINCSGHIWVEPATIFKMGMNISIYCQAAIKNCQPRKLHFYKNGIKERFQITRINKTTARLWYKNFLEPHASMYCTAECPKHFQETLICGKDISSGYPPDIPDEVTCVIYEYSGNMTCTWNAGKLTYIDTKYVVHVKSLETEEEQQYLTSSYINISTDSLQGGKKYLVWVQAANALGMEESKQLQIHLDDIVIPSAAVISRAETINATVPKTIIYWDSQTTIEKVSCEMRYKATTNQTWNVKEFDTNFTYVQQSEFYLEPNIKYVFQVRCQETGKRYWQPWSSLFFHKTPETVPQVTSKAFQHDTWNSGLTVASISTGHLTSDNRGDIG
Experiment: SPR, scFv
reported.metric: koff (s⁻¹)
Provide the reading as a plain figure in s⁻¹.

Which koff is listed for Vκ1/VH2 consensus λ-capped, human IL23R specific scFv (scFv, scFv VL-linker-VH, made in E. coli; also called Vκ1VH2 capped) scFv: DIQMTQSPSSLSASVGDRVTITCQASENIYSFLAWYQQKPGKAPKLLIYSASKLAAGVPSRFSGSGSGTDFTLTISSLQPEDFATYYCQQTNRYSNPDIYNVFGGGTKLTVLGGGGGSGGGGSGGGGSGGGGSQVQLKESGPALVKPTQTLTLTCTFSGIDFNSNYYMCWIRQPPGKALEWLACIYVGSHVNTYYANWAKGRLTISKDTSKNQVVLTMTNMDPVDTATYYCATSGSSVLYFKFWGQGTLVTVSS ?
0.000128

Now the same for Vκ1/VH3 consensus (uncapped), human IL23R specific scFv (scFv, scFv VL-linker-VH, made in E. coli; Vκ framework IV (uncapped, full consensus); also called Vκ1VH3 uncapped) scFv: DIQMTQSPSSLSASVGDRVTITCQASENIYSFLAWYQQKPGKAPKLLIYSASKLAAGVPSRFSGSGSGTDFTLTISSLQPEDFATYYCQQTNRYSNPDIYNVFGQGTKVEIKRGGGGSGGGGSGGGGSGGGGSEVQLVESGGGLVQPGGSLRLSCAASGIDFNSNYYMCWVRQAPGKGLEWVSCIYVGSHVNTYYANWAKGRFTISRDNSKNTLYLQMNSLRAEDTAVYYCATSGSSVLYFKFWGQGTLVTVSS
5.28e-05

Now the same for Vκ2/VH3 consensus (uncapped), human IL23R specific scFv (scFv, scFv VL-linker-VH, made in E. coli; Vκ framework IV (uncapped, full consensus); also called Vκ2VH3 uncapped) scFv: DIVMTQSPLSLPVTPGEPASISCQASENIYSFLAWYLQKPGQSPQLLIYSASKLAAGVPDRFSGSGSGTDFTLKISRVEAEDVGVYYCQQTNRYSNPDIYNVFGQGTKVEIKRGGGGSGGGGSGGGGSGGGGSEVQLVESGGGLVQPGGSLRLSCAASGIDFNSNYYMCWVRQAPGKGLEWVSCIYVGSHVNTYYANWAKGRFTISRDNSKNTLYLQMNSLRAEDTAVYYCATSGSSVLYFKFWGQGTLVTVSS
4.3e-05
